n-fold to wt by entry:
Target: T1, human a-Mesothelin (Acro Biosystems; MSN_H5223) (human, UniProt Q13421 296-580, limits assumed)
T1 construct: Bought protein immobilised on the SPR chip; Printed as 'a-Mesothelin' but used as the antigen for the anti-MSLN scFvs; also called Human MSLN; MSLN
T1 sequence (Q13421 other isoform, or with tags, fused parts or gaps limits assumed): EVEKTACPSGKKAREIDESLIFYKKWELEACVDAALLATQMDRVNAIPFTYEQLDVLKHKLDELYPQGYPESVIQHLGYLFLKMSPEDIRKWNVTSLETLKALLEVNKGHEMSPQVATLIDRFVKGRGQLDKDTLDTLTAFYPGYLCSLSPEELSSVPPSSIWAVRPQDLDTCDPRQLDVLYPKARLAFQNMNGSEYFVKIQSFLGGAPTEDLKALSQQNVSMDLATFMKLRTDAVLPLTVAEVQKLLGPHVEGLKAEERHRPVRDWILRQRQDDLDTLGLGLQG
Assay: SPR, mesothelin immobilised, scFv analyte, 1:1 fit
Express the result in fold but write the number alone.

Recorded n-fold to wt, per entry:
PRO2942 (scFv 54-21-H03-sc01_(T146R)) (scFv, PRO1922 variant; VH substitution, AHo numbering; also called PRO1922 T146R) scFv: DIQMTQSPSSLSASVGDRVTITCQASESIYSSLAWYQQKPGKAPKLLIYLASTLASGVPSRFSGSGSGTDFTLTISSLQPEDFATYYCQSTDYTTSTHRNSFGTGTKVTVLGGGGGSGGGGSGGGGSGGGGSEVQLVESGGGLVQPGGSLRLSCAASGFSFSTTYYMCWVRQAPGKGLEWIGCTNTASSVRTYYATWAKGRFTISRDNSKNTVYLQMNSLRAEDTAVYYCARDMGFADYALNLWGQGTLVRVSS: 0.7
PRO2941 (scFv 54-21-H03-sc01_(T146K)) (scFv, PRO1922 variant; VH substitution, AHo numbering; also called PRO1922 T146K) scFv: DIQMTQSPSSLSASVGDRVTITCQASESIYSSLAWYQQKPGKAPKLLIYLASTLASGVPSRFSGSGSGTDFTLTISSLQPEDFATYYCQSTDYTTSTHRNSFGTGTKVTVLGGGGGSGGGGSGGGGSGGGGSEVQLVESGGGLVQPGGSLRLSCAASGFSFSTTYYMCWVRQAPGKGLEWIGCTNTASSVRTYYATWAKGRFTISRDNSKNTVYLQMNSLRAEDTAVYYCARDMGFADYALNLWGQGTLVKVSS: 1.1

Now consider the entry below.
Would you mind telling me what n-fold to wt value was observed for PRO2931 (scFv 54-21-H03-sc01_(L144K, S148L)) (scFv, PRO1922 variant; VH substitutions, AHo numbering; also called PRO1922 L144K-S148L) scFv: DIQMTQSPSSLSASVGDRVTITCQASESIYSSLAWYQQKPGKAPKLLIYLASTLASGVPSRFSGSGSGTDFTLTISSLQPEDFATYYCQSTDYTTSTHRNSFGTGTKVTVLGGGGGSGGGGSGGGGSGGGGSEVQLVESGGGLVQPGGSLRLSCAASGFSFSTTYYMCWVRQAPGKGLEWIGCTNTASSVRTYYATWAKGRFTISRDNSKNTVYLQMNSLRAEDTAVYYCARDMGFADYALNLWGQGTKVTVLS ?
0.8

Every entry's value here was drawn from patent US20250382363A1.
